The measured values listed here are drawn from PubChem BioAssay (NCI).

Experiment: NCI Yeast Anticancer Drug Screen. Data for the sgs1 mgt1 strain (AID 161);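 note: 0% = growth of cultures given vehicle only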
Conditions: S. cerevisiae sgs1 mgt1 strain, at 50.0 µM (retest, dose inferred, filed as 5.0), stronger effect = higher value
About 79,000 compounds went through this panel and 15% of them were active in at least one assay; those are over-represented in the sample as a whole.
ASSAY_METRIC: growth inhibition (%)

COMPOUND	VALUE_UNIT	RESULT_NUMBER
CN(C)CC(C)(CN(C)C)C(=O)/C=C/c1ccc(Cl)c(Cl)c1	%	98
C/C(=N/O)c1ccc2c(c1)C(=NO)c1cc(/C(C)=N/O)ccc1-2	%	99
C#CC(CC(C)CC(C)(C)C)NC (stereo unspecified)	%	97
[O-]c1c2cc(-[n+]3c(-c4ccccc4)cc(-c4ccccc4)cc3-c3ccccc3)cc1CO[C@@H](c1ccccc1)[C@H](c1ccccc1)OCc1cccc(n1)CO[C@@H](c1ccccc1)[C@H](c1ccccc1)OC2	%	98
C=CNC(=O)Oc1ccccc1	%	-62
Cc1nc(Cl)c(C#N)c(C)c1[N+](=O)[O-]	%	84
COc1cc(NCCCCCCCC2CCCCN2)c2ncccc2c1 (stereo unspecified)	%	98
Cn1c(=O)c2c(nc(OCC(C)(C)C)n2C)n(C)c1=O	%	-1
CC1(c2cccs2)C(C#N)(C#N)C1(C#N)C#N	%	39
NC(N)=NC(N)=Nc1ccc(-c2ccccc2)cc1	%	97
CN(Cc1cc(Cl)cc(Cl)c1)CC(C(=O)c1ccccc1)c1ccccc1 (stereo unspecified)	%	96
